testedOn: KRasG12C (Homo sapiens, UniProt P01116, G12C)
Construct: biotin (biotinylated)
assayDetails: KRasG12C functional assay (HTRF nucleotide exchange / Raf RBD binding)
conditionNotes: GDP loaded biotinylated KRasG12C, samples incubated 4 hrs, FRET readout; single experiment or average of two or more
Recorded log10 IC50, one value per entry.
Hey, these are logged values: log10 of IC50, nM being the unit before logging.

Please review the entries below; each comes with its answer.
>  <compound>
C=CC(=O)N1CCN2c3c(cnc4cc(-c5c(C)ccc6cc[nH]c(=O)c56)c(Cl)cc34)OC[C@H]2C1 (single isomer, unassigned) [Compound 70]

>  <log10 IC50>
1.69

$$$$
>  <compound>
C=CC(=O)N1CCN2c3c(cnc4c(F)c(-c5c(O)cccc5F)c(Cl)cc34)N(C)C(=O)C2C1 (single isomer, unassigned) [Example 20]

>  <log10 IC50>
2.80

$$$$
>  <compound>
C=CC(=O)N1CCN2c3c(cnc4c(F)c(-c5c(O)ccc6ccccc56)c(Cl)cc34)N(C)C(=O)[C@H]2C1 (single isomer, unassigned) [Compound 55]

>  <log10 IC50>
3.77

$$$$

Task: State the recorded log10 IC50 for this entry: C=CC(=O)N1CCN2c3c(cnc4c(F)c(-c5c(C)ccc6[nH]c(=O)oc56)c(Cl)cc34)OC[C@H]2C1 (single isomer, unassigned) [Compound 47]
Output: 1.49

Task: What log10 IC50 value was documented for this compound, C=CC(=O)N1CCN2c3c(cnc4cc(-c5c(C)ccc6[nH]ncc56)c(Cl)cc34)OC[C@@H]2C1 (single isomer, unassigned) [Example 5] ?
Output: 3.76

Task: I have this compound here, C=CC(=O)N1C[C@@H]2COc3cnc4c(F)c(-c5c(O)cccc5F)c(F)cc4c3N2C[C@H]1C (single isomer, unassigned) [Compound 63] , and I need its recorded log10 IC50.
Output: 3.28

Task: Item under review: C=CC(=O)N1CCN2c3c(cnc4c(F)c(-c5c(C)ccc6[nH]ncc56)c(Cl)cc34)N(C)C(=O)[C@H]2C1 (single isomer, unassigned) [Compound 49] . Reported log10 IC50?
Output: 1.67

Task: I have this compound here, C=CC(=O)N1C[C@@H]2COc3cnc4c(C)c(-c5c(O)cccc5F)c(Cl)cc4c3N2C[C@H]1C (single isomer, unassigned) [Compound 41] , and I need its recorded log10 IC50.
Output: 3.18

---

Measured KRasG12C M.S. Binding Mean adduct % of individual entries
testedOn: KRasG12C (Homo sapiens, UniProt P01116, G12C)
Construct: biotin (biotinylated); made in house
assayDetails: KRasG12C Mass Spectrometry adducting assay
Assay type: binding
conditionNotes: 10 μM test compound, 4 μM KRasG12C, 4 hours reaction; single experiment or average of two or more
// return numeric value only (unit: %, not printed)

>  <molecule>
C=CC(=O)N1CCN2c3c(cnc4cc(-c5c(C)ccc6[nH]c(=O)n(C)c56)c(Cl)cc34)OC[C@H]2C1 (single isomer, unassigned) [Compound 67]

>  <endpointResult>
97

$$$$
>  <molecule>
C=CC(=O)N1CCN2c3c(cnc4cc(-c5c(C)ccc6cc[nH]c(=O)c56)c(Cl)cc34)OC[C@H]2C1 (single isomer, unassigned) [Compound 69]

>  <endpointResult>
12

$$$$
>  <molecule>
C=CC(=O)N1CCN2c3c(cnc4c(F)c(-c5c(O)cccc5F)c(Cl)cc34)OC[C@H]2C1 (single isomer, unassigned)

>  <endpointResult>
95

$$$$
>  <molecule>
C=CC(=O)N1CCN2c3c(cnc4cc(-c5c(O)cccc5F)c(Cl)cc34)N(C)C(=O)[C@H]2C1

>  <endpointResult>
100

$$$$

Task: Which KRasG12C M.S. Binding Mean adduct % is listed for C=CC(=O)N1CCN2c3c(cnc4cc(-c5c(O)cccc5F)c(Cl)c(OC)c34)OC[C@H]2C1 ?
Output: 77

Task: Please give the measured KRasG12C M.S. Binding Mean adduct % for this molecule: C=CC(=O)N1CCN2c3c(cnc4c(C)c(-c5c(O)cccc5F)c(Cl)cc34)OC[C@H]2C1 (single isomer, unassigned) [Compound 38]
Output: 7

Task: Form field: reported KRasG12C M.S. Binding Mean adduct % of C=CC(=O)N1C[C@@H]2C(=O)N(C)c3cnc4c(F)c(-c5c(O)cccc5F)c(Cl)cc4c3N2C[C@H]1C (single isomer, unassigned) [Example 22]
Output: 100

Task: What value of measured KRasG12C M.S. Binding Mean adduct % is listed for C=CC(=O)N1CCN2c3c(cnc4cc(-c5c(O)cccc5F)c(Cl)cc34)NC[C@H]2C1 ?
Output: 86

Task: Fill in the blank: the reported KRasG12C M.S. Binding Mean adduct % of C=CC(=O)N1CCN2c3c(nnc4cc(-c5c(O)cccc5F)c(Cl)cc34)OC[C@H]2C1 is ____.
Output: 81

---

testedOn: KRasG12C (Homo sapiens, UniProt P01116, G12C)
Construct: biotin (biotinylated)
assayDetails: KRasG12C functional assay (HTRF nucleotide exchange / Raf RBD binding)
conditionNotes: GDP loaded biotinylated KRasG12C, samples incubated 4 hrs, FRET readout; single experiment or average of two or more
Protocol: KRasG12C Functional Assay All enzyme and substrate solutions were prepared in assay buffer containing 20 mM HEPES (pH 7.5), 5 mM MgCl2, 150 mM NaCl, and 0.01% Tween 20. […] This is detected simultaneously via the specific binding interaction between active GTPγS KRas^G12C with GST-Raf RBD which brings the europium and XL665 into close proximity enabling an increased FRET signal to be detected on a Pherastar (BMG) plate reader equipped with the HTRF filter module. […]
compounds and their reported IC50
Lab book: enter the figure in µM, no units written.

>  <compound>
C=CC(=O)N1CCN2c3c(cnc4c(F)c(-c5c(O)cccc5F)c(Cl)cc34)NC(=O)[C@H]2C1 (single isomer, unassigned) [Compound 88]

>  <scaleUnit>
µM

>  <endpointResult>
0.014

$$$$

Task: Recall the recorded IC50 for C[C@@H]1CN2c3c(cnc4c(F)c(-c5c(O)cccc5F)c(Cl)cc34)OC[C@H]2CN1C(=O)/C=C/CN(C)C (single isomer, unassigned) [Compound 36] with KRasG12C (Homo sapiens, UniProt P01116, G12C) and state it.
Output: 28.1

---

testedOn: KRasG12C (Homo sapiens, UniProt P01116, G12C)
Construct: biotin (biotinylated)
assayDetails: KRasG12C functional assay (HTRF nucleotide exchange / Raf RBD binding)
conditionNotes: GDP loaded biotinylated KRasG12C, samples incubated 4 hrs, FRET readout; single experiment or average of two or more
reportedEndpoint: IC50 (nM)
Numbers only; they are read as nM.

Example entries begin here.
>  <compound>
C[C@@H]1CN2c3c(cnc4c(F)c(-c5c(O)cccc5F)c(Cl)cc34)N(C)C(=O)[C@H]2CN1C(=O)/C=C/CN(C)C (single isomer, unassigned)

>  <testedOn>
KRasG12C (Homo sapiens, UniProt P01116, G12C)

>  <reportedEndpoint>
IC50

>  <endpointResult>
25

$$$$
>  <compound>
C=CC(=O)N1CCN2c3c(cnc4cc(-c5c(O)cccc5F)c(Cl)cc34)N(C)C(=O)C2(C)C1 (single isomer, unassigned) [Compound 32]

>  <testedOn>
KRasG12C (Homo sapiens, UniProt P01116, G12C)

>  <reportedEndpoint>
IC50

>  <endpointResult>
2200

$$$$
>  <compound>
C=CC(=O)N1CCN2c3c(cnc4cc(-c5c(O)cccc5F)c(Cl)cc34)OC[C@H]2C1 (single isomer, unassigned) [Mixture of 1 & 2]

>  <testedOn>
KRasG12C (Homo sapiens, UniProt P01116, G12C)

>  <reportedEndpoint>
IC50

>  <endpointResult>
211

$$$$
>  <compound>
C=CC(=O)N1CCN2c3c(cnc4cc(-c5c(C)ccc6[nH]ncc56)c(Cl)cc34)N(CCN(C)C)C[C@H]2C1 (single isomer, unassigned) [Compound 73]

>  <testedOn>
KRasG12C (Homo sapiens, UniProt P01116, G12C)

>  <reportedEndpoint>
IC50

>  <endpointResult>
57

$$$$
>  <compound>
C=CC(=O)N1CCN2c3c(cnc4cc(-c5c(C)ccc6[nH]ncc56)c(Cl)cc34)OC[C@@H]2C1 (single isomer, unassigned) [Example 6]

>  <testedOn>
KRasG12C (Homo sapiens, UniProt P01116, G12C)

>  <reportedEndpoint>
IC50

>  <endpointResult>
662

$$$$

// next entry
Task: Checklist item: IC50 tested on KRasG12C (Homo sapiens, UniProt P01116, G12C), entry C=CC(=O)N1CCN2c3c(cnc4cc(-c5c(O)cccc5F)c(Cl)cc34)N(C)C(=O)[C@@H]2C1 , value?
Output: 2700

---

Listing: log10 IC50 of selected compounds
testedOn: KRasG12C (Homo sapiens, UniProt P01116, G12C)
Construct: biotin (biotinylated)
assayDetails: KRasG12C functional assay (HTRF nucleotide exchange / Raf RBD binding)
conditionNotes: GDP loaded biotinylated KRasG12C, samples incubated 4 hrs, FRET readout; single experiment or average of two or more
Friendly reminder: values = log10 of IC50, unit nM.

>  <compound>
C#Cc1cc2c3c(cnc2cc1-c1c(C)ccc2[nH]ncc12)OC[C@H]1CN(C(=O)C=C)CCN31 (single isomer, unassigned) [Compound 75]

>  <log10 IC50>
1.98

$$$$
>  <compound>
C=CC(=O)N1CCN2c3c(cnc4c(F)c(-c5c(F)cccc5CO)c(Cl)cc34)N(C)C(=O)[C@H]2C1 (single isomer, unassigned) [Compound 35]

>  <log10 IC50>
2.12

$$$$
>  <compound>
C=CC(=O)N1CCN2c3c(cnc4c(F)c(-c5c(C)ccc6c5C(=O)NC6)c(Cl)cc34)OC[C@H]2C1 (single isomer, unassigned) [Compound 86]

>  <log10 IC50>
1.61

$$$$
>  <compound>
C=CC(=O)N1CCN2c3c(nnc4cc(-c5c(O)cccc5F)c(Cl)cc34)OC[C@H]2C1

>  <log10 IC50>
2.13

$$$$
>  <compound>
C=CC(=O)N1CCN2c3c(cnc4c(Cl)c(-c5c(O)cccc5F)c(F)cc34)N(C)C(=O)[C@H]2C1 (single isomer, unassigned) [Compound 79]

>  <log10 IC50>
2.15

$$$$

Would you kindly look at the next entry?
Task: Query for KRasG12C (Homo sapiens, UniProt P01116, G12C): what log10 IC50 does the record show for C=CC(=O)N1CCN2c3c(cnc4c(F)c(-c5c(O)cccc5F)c(Cl)cc34)NC(=O)[C@H]2C1 (single isomer, unassigned) [Compound 89] ?
Output: 3.56
